Recorded values, source the supplement of paper PMC4466140.

target: SpBzz1-D1; assay: SPOT peptide array binding signal intensity (averaged, normalized) (arbitrary units (background-subtracted, floor 0; scale differs between SH3 domains)); higher = stronger binding of the SH3 domain to the peptide
Measurement Type: SPOT peptide array binding signal intensity
Keep the answer to the number alone.

In the examples that follow, each entry is paired with its recorded SPOT peptide array binding signal intensity.
| Binder | Experimental Value |
| --- | --- |
| PKMLPIPSKPTLFDL | 426 |
| VQQDSLPKLPFRSWG | 275 |
| KKEKKPPKIPKKVYT | 158 |

Here is the next item to consider.
[Q] Value lookup for SPOT peptide array binding signal intensity; key = NFLRLLIGLPSQNEL
[A] 22
